- assayed-system: T1, Vδ1 TCR on human Vδ1-positive γδ T cells (human, UniProt A0A1B0GX56 22-115)
- T1 construct: also called Vδ1 γδ T-cells; cell surface Vδ1 TCR
- T1 sequence (A0A1B0GX56 22-115 limits assumed, stated change not applied): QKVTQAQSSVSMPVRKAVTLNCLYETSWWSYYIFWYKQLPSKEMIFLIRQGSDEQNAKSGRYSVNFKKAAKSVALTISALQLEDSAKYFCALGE
- run-description: flow cytometry binding to γδ T cells, Donor 1 (ATS006); column head printed IC50 (nM), the text calls it EC50 of binding; same value in the table of FIG. 11C
measurement-kind: EC50 (nM)

INSERT INTO measurements (binder, bound_sign, endpoint_result) VALUES
  ('ADT1-7-20 (antibody, IgG1, V domains shown, IgG1) VH: EVQLVESGGGLVKPGGSLRLSCAASGFTFSDYYMSWIRQAPGKGLEWVSYISSSGSTIYYADSVKGRFTISRDNAKNSLYLQMNSLRAEDTAVYYCARVDYQEAFDIWGQGTLVTVSS VL: DIQMTQSPSSLSASVGDRVTIACRAGQSIGTYLNWYQQKPGKAPKLLIYVASSLQSGVPSRFSGSGSGTEFTLTISSLQPEDFATYYCQQSYSGLDTFGRGTKVEIK', '=', 37.2),
  ('ADT1-7-61 (antibody, IgG1, V domains shown, IgG1) VH: EVQLVESGGGLVKPGGSLRLSCAASGFTFSDYYMSWIRQAPGKGLEWVSYISSSGSTIYYADSVKGRFTISRDNAKNSLYLQMNSLRAEDTAVYYCARDDYDDAFDIWGQGTLVTVSS VL: DIQMTQSPSSLSASVGDRVTIACRAGQSIGTYLNWYQQKPGKAPKLLIYVASSLQSGVPSRFSGSGSGTEFTLTISSLQPEDFATYYCQQSASELLTFGRGTKVEIK', '=', 93),
  ('ADT1-4 (parental) (antibody, IgG1, V domains shown, IgG1; also called G04; 1245_P02_G04) VH: QVQLQQSGPGLVKPSQTLSLTCAISGDSVSSKSAAWNWIRQSPSRGLEWLGRTYYRSKWSTDYAASVKSRITINPDTSKNQLSLQLNSVTPEDTAVYYCARTWSGYVDVWGQGTLVTVSS VL: DIQMTQSPPALSASVGDRVTITCRASQDINDWLAWYQHKPGKAPKLLIYDASSLESGVPSRFSGSGSGTEFTLTISSLQPDDFATYYCQQSYSTPQVTFGQGTRLEIK', '=', 108),
  ('ADT1-7-3 (antibody, IgG1, V domains shown, IgG1) VH: EVQLVESGGGLVKPGGSLRLSCAASGFTFSDYYMSWIRQAPGKGLEWVSYISSSGSTIYYADSVKGRFTISRDNAKNSLYLQMNSLRAEDTAVYYCARVSYAEAFDIWGQGTLVTVSS VL: DIQMTQSPSSLSASVGDRVTIACRAGQSIGTYLNWYQQKPGKAPKLLIYVASSLQSGVPSRFSGSGSGTEFTLTISSLQPEDFATYYCQQSYSGLDTFGRGTKVEIK', '=', 5.15),
  ('ADT1-7 (parental) (antibody, IgG1, V domains shown, IgG1; also called E07; 1245_P01_E07) VH: QVQLVESGGGLVKPGGSLRLSCAASGFTFSDYYMSWIRQAPGKGLEWVSYISSSGSTIYYADSVKGRFTISRDNAKNSLYLQMNSLRAEDTAVYYCARVDYADAFDIWGQGTLVTVSS VL: DIQMTQSPSSLSASVGDRVTIACRAGQSIGTYLNWYQQKPGKAPKLLIYVASSLQSGVPSRFSGSGSGTEFTLTISSLQPEDFATYYCQQSYSTLLTFGRGTKVEIK', '>', 100);
